# system: human PDE4B1 (Homo sapiens (Human), UniProt Q07343)
# Sequence (Q07343 whole entry): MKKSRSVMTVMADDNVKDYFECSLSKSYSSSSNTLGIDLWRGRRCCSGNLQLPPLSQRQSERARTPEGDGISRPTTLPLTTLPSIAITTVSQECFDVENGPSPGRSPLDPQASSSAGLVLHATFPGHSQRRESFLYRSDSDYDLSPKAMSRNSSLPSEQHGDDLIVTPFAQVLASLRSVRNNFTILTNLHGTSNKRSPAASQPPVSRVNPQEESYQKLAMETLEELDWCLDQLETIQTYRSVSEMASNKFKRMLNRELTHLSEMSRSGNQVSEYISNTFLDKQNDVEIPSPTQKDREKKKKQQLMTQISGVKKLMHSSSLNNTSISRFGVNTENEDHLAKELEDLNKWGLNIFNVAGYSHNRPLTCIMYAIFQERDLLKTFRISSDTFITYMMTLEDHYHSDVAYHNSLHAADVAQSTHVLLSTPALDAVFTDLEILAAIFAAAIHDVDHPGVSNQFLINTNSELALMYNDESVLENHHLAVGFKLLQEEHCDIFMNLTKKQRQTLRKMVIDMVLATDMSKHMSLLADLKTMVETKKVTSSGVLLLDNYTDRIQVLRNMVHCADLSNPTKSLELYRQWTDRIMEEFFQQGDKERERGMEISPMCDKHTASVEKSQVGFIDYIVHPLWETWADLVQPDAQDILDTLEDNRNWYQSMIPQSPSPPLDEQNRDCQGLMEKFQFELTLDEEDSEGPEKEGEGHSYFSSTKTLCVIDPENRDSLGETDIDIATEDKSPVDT
# protocol_text: cAMP HTRF assay to determine the activity of hPDE4B1
# Type: biochemical
# assay_context: IC50 inhibition of PDE4B; human recombinant PDE4B1, cAMP HTRF assay
experimental_endpoint: IC50

Previously resolved entries follow.
Lab note: measured IC50 of O=C(c1ccc2c(c1)N(c1ncc(-c3ccccc3F)cn1)CC21CC1)N1CC2(CCNC2)C1 [Compound 111] was 1 to 10 µM

For record COc1ccnc(-c2cnc(N3CC4(CC4)c4ccc(C(=O)N5CCOCC5)cc43)nc2)c1 [Compound 182] the listed IC50 is < 0.1 µM

GET /value?item= Cc1nc(C)c(-c2cnc(N3CC4(CC4)c4ccc(C(=O)N5CCOCC5)cc43)nc2)s1 [Compound 154] &field=IC50 returns < 0.1 µM

The value of IC50 measured for the compound CS(=O)(=O)c1ccccc1-c1cnc(N2CC3(CC3)c3ccc(C(=O)N4CCOCC4)cc32)nc1 [Compound 28] turned out to be 0.1 to 1 µM

Per the record, O=C(c1ccc2c(c1)N(c1ncc(-c3cc(F)cnc3F)cn1)CC21CC1)N1CCOCC1 [Compound 163] has IC50 of < 0.1 µM

Give IC50 for each listed item.
1. COCC1CCN(C(=O)c2ccc3c(c2)N(c2ncc(-c4ccccc4F)cn2)CC32CC2)CC1 [Compound 217]
2. O=C(c1ccc2c(c1)N(c1ncc(-c3ccccc3F)cn1)CC21CC1)N1CCCCC1CO (stereo not shown) [Compound 97]
3. O=C(c1ccc2c(c1)N(c1ncc(-c3ccccc3F)cn1)CC21CC1)N1CCSCC1 [Compound 93]
4. Cc1noc(C)c1-c1cnc(N2CC3(CC3)c3ccc(C(=O)N4CCOCC4)cc32)nc1 [Compound 135]
5. O=C(c1ccc2c(c1)N(c1ncc(-c3ccncc3)cn1)CC21CC1)N1CCOCC1 [Compound 146]
6. N#Cc1ccsc1-c1cnc(N2CC3(CC3)c3ccc(C(=O)N4CCOCC4)cc32)nc1 [Compound 153]

## Output
1 to 10 µM
1 to 10 µM
< 0.1 µM
0.1 to 1 µM
< 0.1 µM
< 0.1 µM

###

# system: human PDE4B1 (Homo sapiens (Human))
# protocol_text: cAMP HTRF assay to determine the activity of hPDE4B1
# Type: biochemical
# assay_context: IC50 inhibition of PDE4B; human recombinant PDE4B1, cAMP HTRF assay
experimental_endpoint: IC50

These solved cases illustrate the format of a correct answer.
Just so you know, measured IC50 for O=C(c1ccc2c(c1)N(c1ncc(-c3cncnc3)cn1)CC21CC1)N1CCOCC1 came out at < 0.1 µM

Briefly, IC50 measured for O=C(c1cnc2c(c1)N(c1ncc(-c3ccccc3F)cn1)CC21CC1)N1CCOCC1 : 0.1 to 1 µM

Could you now look at the following compound, please?
IC50 reading for O=C(c1ccc2c(c1)N(c1ncc(-c3ccccc3C(F)F)cn1)CC21CC1)N1CCOCC1 : 0.1 to 1 µM

###

# system: human PDE4B1 (Homo sapiens (Human), UniProt Q07343)
# protocol_text: cAMP HTRF assay to determine the activity of hPDE4B1
# Type: biochemical
# assay_context: IC50 inhibition of PDE4B; human recombinant PDE4B1, cAMP HTRF assay
experimental_endpoint: IC50

// below: answered compounds
For record O=C(c1ccc2c(c1)N(c1ncc(-c3cccc(Cl)c3)cn1)CC21CC1)N1CCOCC1 the listed IC50 is 0.1 to 1 µM

Recorded IC50 (compound N#Cc1csc(-c2cnc(N3CC4(CC4)c4ccc(C(=O)N5CCOCC5)cc43)nc2)c1 ): < 0.1 µM

Now consider a different compound.
IC50 reported for this compound N#Cc1cccc(F)c1-c1cnc(N2CC3(CC3)c3ccc(C(=O)N4CCOCC4)cc32)nc1 : 0.1 to 1 µM
